- Test system: S6 Ribosomal Protein phosphorylation Ser235/236 in TSC1 null mouse embryo fibroblast (MEF) cells
- TEST DESCRIPTION: Reverse protein array, S6 Ribosomal Protein phosphorylation in TSC1 null MEF cells
- Format: cell-based
- CONDITION SET: 1 h, TSC1-/- MEFs, 60 minutes, read-out: p-S6 IC50
Recorded measurements of pIC50, one per entry
Reminder that pIC50 is minus the log10 of a molar concentration.

MOL SMILES: COc1cc(-c2ccc3ncc4c(c3c2)n(-c2cccnc2C)c(=O)n4C)cnc1C(OC)OC
pIC50: 7.27
--
MOL SMILES: CCNc1cc(-c2ccc3ncc4c(c3c2)n(-c2ccc(N3CC[C@H](O)C3)nc2C)c(=O)n4C)cnc1CO
pIC50: 8.07
--
MOL SMILES: CNc1ncc(-c2ccc3ncc4c(c3c2)n(-c2ccc(N3CC[C@@H](O)C3)nc2C)c(=O)n4C)cn1
pIC50: 8.52
--
MOL SMILES: CCOc1cc(-c2ccc3ncc4c(c3c2)n(-c2ccc(N3CCCC3)nc2C)c(=O)n4C)cnc1COC
pIC50: 8.70
--
MOL SMILES: CCOc1ccc(-c2ccc3ncc4c(c3c2)n(-c2ccc(N(C)CCOC)nc2C)c(=O)n4C)cn1
pIC50: 6.89

Exam item: Given the molecule COCCOc1cc(-c2ccc3ncc4c(c3c2)n(-c2ccc(OC)nc2OC)c(=O)n4C)cnc1C , write its reported pIC50.
Marked response: 8.40

Exam item: Identify pIC50 associated with the molecule CNc1ncc(-c2ccc3ncc4c(c3c2)n(-c2ccc(N(C)CCOC)nc2C)c(=O)n4C)cn1
Marked response: 8.15

Exam item: Return pIC50 for the following molecule: CCNc1cc(-c2ccc3ncc4c(c3c2)n(-c2ccc(C)nc2C)c(=O)n4C)cnc1C
Marked response: 8.70

Exam item: Give reported pIC50 value for Cc1cc(F)ncc1-n1c(=O)n(C)c2cnc3ccc(-c4cnc5c(ccn5C)c4)cc3c21
Marked response: 7.90

###

Measured pIC50, listed per entry.
- Test system: PKB Ser473 phosphorylation in Rat1-myr-HA-p110 beta cells
- TEST DESCRIPTION: Reverse protein array, PKB Ser473 phosphorylation in Rat1-myr-HA-p110 beta cells
- Format: cell-based
- CONDITION SET: Rattus norvegicus, 0.5 h, 30 minutes compound incubation, read-out: p-PKB/IC50_beta
pIC50 is defined as minus the log10 of a concentration measured in mol/L.

COMPOUND: CNc1ncc(-c2ccc3ncc4c(c3c2)n(-c2ccc(N3CCC(O)C3)nc2C)c(=O)n4C)cn1 (stereo not shown)
SYSTEM NAME: PKB Ser473 phosphorylation in Rat1-myr-HA-p110 beta cells
pIC50: 7.95

COMPOUND: CNc1ccc(-c2ccc3ncc4c(c3c2)n(-c2cccnc2C)c(=O)n4C)cn1
SYSTEM NAME: PKB Ser473 phosphorylation in Rat1-myr-HA-p110 beta cells
pIC50: 7.73

COMPOUND: CCOc1ccc(-c2ccc3ncc4c(c3c2)n(-c2cnccc2C)c(=O)n4C)cn1
SYSTEM NAME: PKB Ser473 phosphorylation in Rat1-myr-HA-p110 beta cells
pIC50: 6.83

COMPOUND: COc1cc(-c2ccc3ncc4c(c3c2)n(-c2ccc(N3CCCC3)nc2C)c(=O)n4C)cnc1CO
SYSTEM NAME: PKB Ser473 phosphorylation in Rat1-myr-HA-p110 beta cells
pIC50: 7.75

COMPOUND: CNc1ncc(-c2ccc3ncc4c(c3c2)n(-c2ccc(N(C)CCOC)nc2C)c(=O)n4C)cn1
SYSTEM NAME: PKB Ser473 phosphorylation in Rat1-myr-HA-p110 beta cells
pIC50: 7.67

Exam item: Lab note: record pIC50 of CCNc1cc(-c2ccc3ncc4c(c3c2)n(-c2ccc(OC)nc2C)c(=O)n4C)cnc1C tested on PKB Ser473 phosphorylation in Rat1-myr-HA-p110 beta cells.
Marked response: 8.12

Exam item: Jot down pIC50 (PKB Ser473 phosphorylation in Rat1-myr-HA-p110 beta cells) of Cc1ccncc1-n1c(=O)n(C)c2cnc3ccc(-c4ccc(CO)nc4)cc3c21 .
Marked response: 6.16

Exam item: Return reported pIC50 for target or system PKB Ser473 phosphorylation in Rat1-myr-HA-p110 beta cells, item COCCOc1cncc(-c2ccc3ncc4c(c3c2)n(-c2ccc(OC)nc2OC)c(=O)n4C)c1 .
Marked response: 6.94

Exam item: Write down measured pIC50 (PKB Ser473 phosphorylation in Rat1-myr-HA-p110 beta cells) for this compound. CCOc1cc(-c2ccc3ncc4c(c3c2)n(-c2cccnc2C)c(=O)n4C)cnc1C
Marked response: 7.65

Exam item: Provide the reported pIC50 (system: PKB Ser473 phosphorylation in Rat1-myr-HA-p110 beta cells) for COc1cc(-c2ccc3ncc4c(c3c2)n(-c2ccc(F)nc2C)c(=O)n4C)cnc1CO
Marked response: 7.02

###

- SYSTEM NAME: PI3K delta (Homo sapiens, UniProt O00329)
- Construct: for the full-length p110-d subunit are generated and fused by overlapping PCR; His tag (C); made in house; host or cells: baculovirus BV1060; Tn5 (Trichoplusia ni) or TiniPro insect cells
- Sequence (O00329 with tags, fused parts or gaps limits assumed): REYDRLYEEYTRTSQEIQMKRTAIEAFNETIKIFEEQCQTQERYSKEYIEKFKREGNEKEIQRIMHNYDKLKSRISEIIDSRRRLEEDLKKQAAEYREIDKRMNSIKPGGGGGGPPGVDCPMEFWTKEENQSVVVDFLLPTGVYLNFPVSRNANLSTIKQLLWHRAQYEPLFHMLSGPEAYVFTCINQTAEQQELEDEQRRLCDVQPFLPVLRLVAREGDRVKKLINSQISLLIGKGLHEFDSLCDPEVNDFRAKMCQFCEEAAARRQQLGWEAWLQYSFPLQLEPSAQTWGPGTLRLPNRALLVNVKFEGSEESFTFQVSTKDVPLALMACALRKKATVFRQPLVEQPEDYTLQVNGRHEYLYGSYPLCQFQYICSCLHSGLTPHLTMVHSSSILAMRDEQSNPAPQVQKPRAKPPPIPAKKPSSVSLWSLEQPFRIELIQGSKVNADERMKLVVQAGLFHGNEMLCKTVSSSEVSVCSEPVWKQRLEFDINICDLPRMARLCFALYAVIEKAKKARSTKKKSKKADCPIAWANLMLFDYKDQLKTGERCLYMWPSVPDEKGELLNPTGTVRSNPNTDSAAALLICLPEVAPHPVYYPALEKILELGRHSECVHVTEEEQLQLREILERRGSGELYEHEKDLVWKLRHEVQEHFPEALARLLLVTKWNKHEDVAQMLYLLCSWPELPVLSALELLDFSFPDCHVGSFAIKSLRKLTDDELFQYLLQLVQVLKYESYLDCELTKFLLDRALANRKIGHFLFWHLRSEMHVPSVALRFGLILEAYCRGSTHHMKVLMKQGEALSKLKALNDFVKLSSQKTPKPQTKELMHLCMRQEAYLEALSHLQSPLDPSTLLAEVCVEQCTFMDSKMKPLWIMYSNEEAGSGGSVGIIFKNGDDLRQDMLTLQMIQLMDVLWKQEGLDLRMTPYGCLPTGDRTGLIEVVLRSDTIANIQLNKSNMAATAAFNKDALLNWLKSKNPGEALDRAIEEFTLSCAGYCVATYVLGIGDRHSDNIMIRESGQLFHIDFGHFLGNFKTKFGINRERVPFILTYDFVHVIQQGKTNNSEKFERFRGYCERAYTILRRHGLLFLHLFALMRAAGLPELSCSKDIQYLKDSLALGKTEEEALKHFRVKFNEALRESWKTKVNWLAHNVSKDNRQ
- TEST DESCRIPTION: PI3K delta kinase assay (Kinase-Glo luminescence)
- Type: biochemical
- CONDITION SET: read-out: PI3Kdelta/IC50
- Method: In a more preferred assay, the kinase reaction is performed in a final volume of 10 μL per well of a low volume non binding CORNING, 384 well black plate (Cat. No. #3676). The final concentrations of ATP and phosphatidyl inositol (PI) in the assay are 1 μM and 10 μg/mL respectively. The reaction is started by the addition of ATP. The components of the assay are added per well as follows: […]
PROPERTY LABEL: pIC50
The scale used: pIC50 is minus the common logarithm of the concentration in molar units.

Worked cases, pIC50 given:
COMPOUND: COc1ncccc1-n1c(=O)n(C)c2cnc3ccc(-c4cnc5c(ccn5C)c4)cc3c21 [Example 1.7]
pIC50: 7.00

COMPOUND: CCOc1ccc(-c2ccc3ncc4c(c3c2)n(-c2cccnc2OC)c(=O)n4C)cn1 [Example 1.5]
pIC50: 6.78

COMPOUND: CNc1ccc(-c2ccc3ncc4c(c3c2)n(-c2cccnc2C)c(=O)n4C)cn1 [Example 2.13]
pIC50: 7.70

COMPOUND: CCOc1ccc(-c2ccc3ncc4c(c3c2)n(-c2ccc(F)nc2C)c(=O)n4C)cn1 [Example 7.3]
pIC50: 7.15

Exam item: Return the recorded pIC50 value; entry: Cc1ncccc1-n1c(=O)n(C)c2cnc3ccc(-c4cnc5[nH]ccc5c4)cc3c21 [Example 2.8]
Marked response: 7.46

Exam item: Tell me its pIC50 given COc1ncccc1-n1c(=O)n(C)c2cnc3ccc(-c4cnc(N)c(C(F)(F)F)c4)cc3c21 [Example 1.3] as the entry.
Marked response: 8.10

Exam item: Give pIC50 for COc1ccc(-n2c(=O)n(C)c3cnc4ccc(-c5cnc(N)c(C(F)(F)F)c5)cc4c32)c(OC)n1 [Example 8.1]
Marked response: 7.92

Exam item: Item Cc1cccnc1-n1c(=O)n(C)c2cnc3ccc(-c4ccc(CO)nc4)cc3c21 [Example 3.9] : provide pIC50
Marked response: 6.23

Exam item: Supply reported pIC50 belonging to this compound: COc1ncccc1-n1c(=O)n(C)c2cnc3ccc(-c4ccc(F)nc4)cc3c21 [Example 1.8]
Marked response: 6.44

###

- SYSTEM NAME: mTOR (Homo sapiens)
- Construct: purchased Invitrogen Corporation (Carlsbad/Calif., USA) PV4753
- Sequence (P42345 1360-2549 limits assumed): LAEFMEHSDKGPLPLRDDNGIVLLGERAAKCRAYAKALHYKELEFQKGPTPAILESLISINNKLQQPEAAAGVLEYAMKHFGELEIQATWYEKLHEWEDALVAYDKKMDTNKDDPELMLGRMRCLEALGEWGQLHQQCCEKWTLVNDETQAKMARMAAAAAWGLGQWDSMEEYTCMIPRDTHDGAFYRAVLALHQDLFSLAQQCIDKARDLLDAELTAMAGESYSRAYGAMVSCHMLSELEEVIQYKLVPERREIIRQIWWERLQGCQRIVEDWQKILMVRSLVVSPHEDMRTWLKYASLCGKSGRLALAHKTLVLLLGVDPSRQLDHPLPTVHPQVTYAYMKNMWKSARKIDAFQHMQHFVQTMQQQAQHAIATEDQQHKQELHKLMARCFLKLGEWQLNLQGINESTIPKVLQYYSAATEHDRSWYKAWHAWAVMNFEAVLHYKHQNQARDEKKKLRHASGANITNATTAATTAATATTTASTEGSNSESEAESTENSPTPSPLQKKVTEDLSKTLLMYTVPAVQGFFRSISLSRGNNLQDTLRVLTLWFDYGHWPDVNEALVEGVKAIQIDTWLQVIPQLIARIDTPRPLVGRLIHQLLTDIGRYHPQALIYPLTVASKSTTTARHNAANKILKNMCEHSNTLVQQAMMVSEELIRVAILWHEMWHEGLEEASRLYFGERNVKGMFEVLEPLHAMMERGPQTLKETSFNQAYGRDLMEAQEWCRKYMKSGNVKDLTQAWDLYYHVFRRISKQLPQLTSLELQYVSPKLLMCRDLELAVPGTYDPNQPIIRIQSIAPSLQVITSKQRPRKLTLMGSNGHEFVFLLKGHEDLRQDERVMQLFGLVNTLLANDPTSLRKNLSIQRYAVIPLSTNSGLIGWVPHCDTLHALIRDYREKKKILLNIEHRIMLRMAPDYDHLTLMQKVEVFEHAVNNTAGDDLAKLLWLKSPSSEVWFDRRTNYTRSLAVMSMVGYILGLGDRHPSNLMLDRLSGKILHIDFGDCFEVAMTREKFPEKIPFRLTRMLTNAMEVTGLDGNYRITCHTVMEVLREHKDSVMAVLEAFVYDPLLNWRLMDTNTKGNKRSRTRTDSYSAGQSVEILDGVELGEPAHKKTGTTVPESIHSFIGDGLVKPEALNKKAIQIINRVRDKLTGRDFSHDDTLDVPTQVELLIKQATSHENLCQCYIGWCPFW
- TEST DESCRIPTION: Biochemical assay for m-TOR by TR-FRET
- CONDITION SET: read-out: EPK_mTOR/IC50
PROPERTY LABEL: pIC50
Scale explanation: pIC50 corresponds to minus log10 of a concentration expressed in moles per litre.

Field: example entries. Status: answers known.
MOLECULE: COC1CCN(c2ccc(-n3c(=O)n(C)c4cnc5ccc(-c6cncc(C(C)(C)O)c6)cc5c43)c(C)n2)C1 (stereo not shown)
RESULT: 7.66
//
MOLECULE: COCCOc1ccc(-n2c(=O)n(C)c3cnc4ccc(-c5cncc(N6CCC6)c5)cc4c32)c(C)n1
RESULT: 7.68
//
MOLECULE: CNc1ncc(-c2ccc3ncc4c(c3c2)n(-c2ccc(N3CC[C@H](O)C3)nc2C)c(=O)n4C)cn1
RESULT: 8.40
//
MOLECULE: COCCOc1cc(-c2ccc3ncc4c(c3c2)n(-c2ccc(OC)nc2OC)c(=O)n4C)cnc1C
RESULT: 8.00
//
MOLECULE: CNc1ncc(-c2ccc3ncc4c(c3c2)n(-c2ccc(N3CCC(OC)C3)nc2C)c(=O)n4C)cn1 (stereo not shown)
RESULT: 8.10

Moving on to another molecule below.
Exam item: Indicate the recorded pIC50 value for this molecule: CNc1ccc(-c2ccc3ncc4c(c3c2)n(-c2ccc(NC(=O)COC)nc2C)c(=O)n4C)cn1
Marked response: 7.96
